- SUBJECT OF TEST: LRRK1 (Homo sapiens, UniProt Q38SD2)
- Construct: recombinant LRRK1, residues 28 to 2015
- Sequence (Q38SD2 28-2015): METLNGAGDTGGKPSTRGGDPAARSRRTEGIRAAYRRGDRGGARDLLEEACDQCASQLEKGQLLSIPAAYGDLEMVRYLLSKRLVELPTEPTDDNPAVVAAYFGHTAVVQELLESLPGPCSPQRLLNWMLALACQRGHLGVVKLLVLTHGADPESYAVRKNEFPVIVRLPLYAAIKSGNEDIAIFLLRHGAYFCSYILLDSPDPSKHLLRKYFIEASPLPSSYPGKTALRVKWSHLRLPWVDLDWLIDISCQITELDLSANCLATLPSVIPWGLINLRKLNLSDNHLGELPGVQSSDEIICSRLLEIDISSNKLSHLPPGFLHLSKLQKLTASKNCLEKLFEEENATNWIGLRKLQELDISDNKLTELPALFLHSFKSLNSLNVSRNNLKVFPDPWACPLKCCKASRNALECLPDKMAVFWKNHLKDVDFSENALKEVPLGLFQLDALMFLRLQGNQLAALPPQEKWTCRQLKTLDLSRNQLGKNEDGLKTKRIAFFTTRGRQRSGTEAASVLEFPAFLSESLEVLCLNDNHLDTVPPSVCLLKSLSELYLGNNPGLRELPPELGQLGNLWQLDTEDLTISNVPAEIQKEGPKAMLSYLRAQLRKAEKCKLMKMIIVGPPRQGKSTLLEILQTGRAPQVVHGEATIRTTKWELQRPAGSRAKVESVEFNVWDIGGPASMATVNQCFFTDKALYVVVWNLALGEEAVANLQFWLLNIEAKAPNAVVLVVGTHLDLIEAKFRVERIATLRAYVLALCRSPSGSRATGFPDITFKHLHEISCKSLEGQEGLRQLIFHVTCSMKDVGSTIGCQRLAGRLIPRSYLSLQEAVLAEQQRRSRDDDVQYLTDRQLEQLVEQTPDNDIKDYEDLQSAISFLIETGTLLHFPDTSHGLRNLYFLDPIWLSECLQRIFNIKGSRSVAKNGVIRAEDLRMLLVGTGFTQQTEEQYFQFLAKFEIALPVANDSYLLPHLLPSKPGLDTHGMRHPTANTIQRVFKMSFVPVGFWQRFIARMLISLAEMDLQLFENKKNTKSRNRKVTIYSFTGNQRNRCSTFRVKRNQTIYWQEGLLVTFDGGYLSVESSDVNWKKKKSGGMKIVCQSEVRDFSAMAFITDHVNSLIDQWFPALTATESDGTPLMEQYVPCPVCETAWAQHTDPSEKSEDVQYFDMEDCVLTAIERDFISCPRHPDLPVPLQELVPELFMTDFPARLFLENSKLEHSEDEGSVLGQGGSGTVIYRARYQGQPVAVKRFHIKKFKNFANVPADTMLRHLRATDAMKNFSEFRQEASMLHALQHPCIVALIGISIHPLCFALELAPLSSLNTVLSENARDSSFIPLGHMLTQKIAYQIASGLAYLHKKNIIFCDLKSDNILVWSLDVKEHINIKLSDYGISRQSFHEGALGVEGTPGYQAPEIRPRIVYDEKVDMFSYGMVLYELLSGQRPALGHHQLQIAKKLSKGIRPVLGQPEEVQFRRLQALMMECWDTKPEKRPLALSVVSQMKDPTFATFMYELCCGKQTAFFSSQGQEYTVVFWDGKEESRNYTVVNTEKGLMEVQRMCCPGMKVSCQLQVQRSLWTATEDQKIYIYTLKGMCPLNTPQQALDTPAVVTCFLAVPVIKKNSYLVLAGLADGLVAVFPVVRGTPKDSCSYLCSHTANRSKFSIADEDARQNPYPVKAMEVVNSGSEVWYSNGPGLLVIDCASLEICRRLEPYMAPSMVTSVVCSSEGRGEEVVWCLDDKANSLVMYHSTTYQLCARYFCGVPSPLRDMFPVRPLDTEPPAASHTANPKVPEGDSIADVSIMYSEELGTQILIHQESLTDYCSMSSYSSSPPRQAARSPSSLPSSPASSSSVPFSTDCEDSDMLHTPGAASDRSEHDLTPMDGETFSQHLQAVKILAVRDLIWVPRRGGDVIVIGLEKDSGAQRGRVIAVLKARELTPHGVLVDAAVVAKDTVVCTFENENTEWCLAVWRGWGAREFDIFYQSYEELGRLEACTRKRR
- METHOD DESCRIPTION: in vitro kinase assay, Rab7A Ser72 phosphorylation by immunoblot, […] ATP
- Type: biochemical

COMPOUND: Cc1ccc(C(=O)Nc2ccc(CN3CCN(C)CC3)c(C(F)(F)F)c2)cc1C#Cc1cnc2[nH]ncc2c1 [GZD-824]
IC50: ~20 nM
